Each entry below carries its recorded selectivity ratio.
# TEST: Selectivity index, ratio of CC50 for african green monkey Vero cells to EC50 for Human coxsackievirus B2 Ohio-1
# Assay type: toxicity, cell-based
# RUN_CONDITIONS: read-out: Ratio CC50/EC50

# input I have this molecule here, `COc1cc(OC)cc(-c2nc3cc(C(F)(F)F)ccc3[nH]2)c1` , and I need its recorded selectivity ratio.
# output > 33

# input Note, next up: `CC(=O)Nc1ccc(-c2nc3cc(C(F)(F)F)ccc3[nH]2)cc1`
# output 17

# input What do you have for `O=C(CN1CCCC1)Nc1ccc(-c2nc3cc(Cl)c(Cl)cc3[nH]2)cc1` ?
# output > 67

# input Lookup `CCC(=O)Nc1ccc(-c2nc3cc(C(F)(F)F)ccc3[nH]2)cc1`
# output > 25

Query molecule follows.
# input Entry under review: `CC(=O)Nc1ccc(-c2nc3cc(C(F)(F)F)ccc3n2C)cc1` . Reported selectivity ratio?
# output > 40

Data credit: ChEMBL document CHEMBL1156237
